Origin of measurements: PubChem BioAssay (NCATS)

- Assay Explanation: qHTS Screen of the MIPE 4.0 Collection Against Ewings Sarcoma (RDES) (AID 1259252); further: nearly all actives have a fitted effect of over 35% in size
- Protocol Conditions: RD-ES Ewing sarcoma viability, CellTiter-Glo, 48 h; series mostly up to 45.8 µM
Inconclusive results are not listed. Calls of active or inactive are those of the source. The call rests on the fitted dose curve; in most records, active means well fitted inhibition curve with a large enough effect; inconclusive means small, poorly fitted or top-dose-only effect; inactive means no such curve, though single readings can be large or run the other way.
Permitted responses: YES = active, NO = inactive

input: Give the logged outcome of this assay for the following molecule: CC1(C)Cc2c(sc(NC(=S)NC(=O)c3ccccc3)c2C(=O)O)CO1
output: YES

###

- Test system: Zika virus NS2B-NS3 protease
- Assay Explanation: Primary screen GU AMC qHTS for Zika virus inhibitors (AID 1347154); further: nearly all actives have a fitted effect of over 70% in size
- Protocol Conditions: Zika NS2B-NS3 unlinked protease, AMC fluorogenic substrate; series mostly up to 54.1 µM
Results filed as inconclusive are left out. Calls of active or inactive are those of the source. Calls follow the shape of the dose curve; as a rule, active = well fitted inhibition curve with a large enough effect; inconclusive = small, poorly fitted or top-dose-only effect; inactive = flat fitted curve, though single readings scatter.
Permitted responses: y (active), n (inactive)

Sample answers from the record:
Molecule	Tested System	Assigned Class
CCOc1ccc(Nc2nc(-c3c(C)nc4ccccn34)cs2)cc1	Zika virus NS2B-NS3 protease	n
O=C1NC(=O)C(=Cc2ccc(-c3ccc(F)cc3)o2)S1	Zika virus NS2B-NS3 protease	n

input: Give the logged outcome of this assay for the following molecule: N#CC1(c2ccc(NC(=O)c3cccnc3NCc3ccncc3)cc2)CCCC1
output: n

input: Please answer likewise for CCN(CC)CCNC(=O)c1ccc(N)cc1
output: n

input: Please answer likewise for NS(=O)(=O)c1cccc2c1C(=O)c1cccc(O)c1C2=O
output: n

input: Please answer likewise for O=C(O)Cc1cccc2ccccc12
output: n

input: Please answer likewise for CC#CCn1c(N2CCC[C@@H](N)C2)nc2c1c(=O)n(Cc1nc(C)c3ccccc3n1)c(=O)n2C
output: n

input: Please answer likewise for COc1ccc(C2Sc3ccccc3N(CCN(C)C)C(=O)C2OC(C)=O)cc1 (stereo not given)
output: n

input: Please answer likewise for O=C(Nc1cc(Cl)cc2c1[nH]c1cnccc12)c1cccnc1
output: n

###

- Assay Explanation: Quantitative High-Throughput drug screen in 47 multiple myeloma cell lines against the NCATS MIPE library collection: UTMC2_PLB cell viability assay (AID 1919868); further: nearly all actives have a fitted effect of over 55% in size
- Protocol Conditions: CellTiter-Glo ATP luminescence, 48 h
Records with an inconclusive call do not appear. Calls of active or inactive are those of the source. Calls follow the shape of the dose curve; as a rule, active = well fitted cell-killing curve with a large enough effect; inconclusive = small, poorly fitted or top-dose-only effect, or effect the other way; inactive = no such curve, though single readings can be large or run the other way.
Permitted responses: active, inactive

Sample answers from the record:
Molecule	Assigned Class
COc1cc(NC(=O)c2ccc(-c3ccc(Cl)cc3)o2)cc(OC)c1	active
O=C1NC(=O)C(=Cc2ccc3nccnc3c2)S1	active
C[C@@H]1CCN(C(=O)CC#N)C[C@H]1N(C)c1ncnc2[nH]ccc12	inactive
COc1cc(Nc2ncc(F)c(Nc3ccc4c(n3)NC(=O)C(C)(C)O4)n2)cc(OC)c1OC	active

Please examine the following record next.
input: Give the logged outcome of this assay for the following molecule: O=c1c(-c2ccc(O)cc2)coc2cc(OC3O[C@H](CO)[C@H](O)[C@H](O)[C@H]3O)cc(O)c12 (stereo not given in full)
output: active

###

- Assay Explanation: qHTS profiling of the MIPE4 collection as inhibitors of Plasmodium falciparum (DD2) proliferation (AID 743345)
- Protocol Conditions: P. falciparum Dd2 in erythrocytes, SYBR Green DNA, 72 h; at 28.5 µM (top of the series) unless noted
Please use met for parasite growth remaining, % of DMSO control (lower = more inhibition) under 80% and not met for everything else, ties included.

Sample answers from the record:
Compound	Assigned Class
CCc1ccc(C=C2SC(=S)NC2=O)cc1	not met
COc1ccc2cc(-c3nc(-c4ccc(S(C)=O)cc4)[nH]c3-c3ccncc3)ccc2c1 (centres undefined)	met
CC(=O)Nc1ccc([C@H](C)C(=O)Nc2ncc(C(C)C)s2)cc1	not met
O=C(O)c1ccccc1C(=O)Nc1ccc(-c2ccccc2)cc1	not met
CC(C)n1cnc2c(NCCCCCCNC(=O)OC(C)(C)C)nc(NCCO)nc21	met
C[C@H](NC(=O)c1sccc1OCc1ccc(Cl)cc1)c1ccccc1	met

input: Regarding COCCOC(=O)C1=C(C)NC2=C(C(=O)CC(c3ccccc3OC)C2)C1c1cccc(O)c1 (centres undefined) , kindly confirm whether its parasite growth remaining, % of DMSO control (lower = more inhibition) is beneath 80%.
output: met

input: Please answer likewise for CC1(C)CCC[C@@]2(C)[C@@H]1CC[C@@]1(C)OC(=O)C[C@H]21
output: not met
